# System: VDR:RXRa (NR concentration 270 nM, RXRa partner concentration 90 nM)
# Assay comment: PBM binding z-score (relative to random genomic background probes); higher = stronger binding; sequences stand for … in GC…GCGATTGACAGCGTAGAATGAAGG
Reported metric: PBM binding z-score

>>> df
                                 chain  value_observed
 0  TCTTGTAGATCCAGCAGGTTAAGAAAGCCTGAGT           0.306
 1  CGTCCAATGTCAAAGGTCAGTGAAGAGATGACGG            3.72
 2  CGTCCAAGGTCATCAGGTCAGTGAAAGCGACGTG            5.43
 3  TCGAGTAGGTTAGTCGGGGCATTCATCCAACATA            2.37
 4  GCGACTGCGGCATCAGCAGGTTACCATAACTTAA            -0.5
 5  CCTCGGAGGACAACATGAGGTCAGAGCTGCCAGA            2.98
 6  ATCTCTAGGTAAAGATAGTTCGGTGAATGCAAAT           0.244
 7  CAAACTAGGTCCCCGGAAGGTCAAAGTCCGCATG            3.23
 8  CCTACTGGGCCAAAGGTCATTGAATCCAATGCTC            4.86
 9  ATACCTAGGTGATCGTGAGGTCGTTGATACTAAC            2.66
10  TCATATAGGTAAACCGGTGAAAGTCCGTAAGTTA            0.87
11  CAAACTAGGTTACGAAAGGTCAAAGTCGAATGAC            5.53
12  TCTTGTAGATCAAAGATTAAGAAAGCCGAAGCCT           0.389
13  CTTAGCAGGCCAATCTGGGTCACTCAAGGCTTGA           0.462
14  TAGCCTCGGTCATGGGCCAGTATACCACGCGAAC          -0.162
15  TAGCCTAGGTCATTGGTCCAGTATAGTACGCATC            2.55
16  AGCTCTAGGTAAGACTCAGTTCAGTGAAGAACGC           0.321
17  AGAATGAGGTTATACCTAGATCAGGGAAGAAAGT            1.11
18  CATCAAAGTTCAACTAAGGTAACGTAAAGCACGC            4.98
